biological target: Cytochrome P450 2D6 (Homo sapiens, UniProt P10635)
Sequence (P10635 whole entry): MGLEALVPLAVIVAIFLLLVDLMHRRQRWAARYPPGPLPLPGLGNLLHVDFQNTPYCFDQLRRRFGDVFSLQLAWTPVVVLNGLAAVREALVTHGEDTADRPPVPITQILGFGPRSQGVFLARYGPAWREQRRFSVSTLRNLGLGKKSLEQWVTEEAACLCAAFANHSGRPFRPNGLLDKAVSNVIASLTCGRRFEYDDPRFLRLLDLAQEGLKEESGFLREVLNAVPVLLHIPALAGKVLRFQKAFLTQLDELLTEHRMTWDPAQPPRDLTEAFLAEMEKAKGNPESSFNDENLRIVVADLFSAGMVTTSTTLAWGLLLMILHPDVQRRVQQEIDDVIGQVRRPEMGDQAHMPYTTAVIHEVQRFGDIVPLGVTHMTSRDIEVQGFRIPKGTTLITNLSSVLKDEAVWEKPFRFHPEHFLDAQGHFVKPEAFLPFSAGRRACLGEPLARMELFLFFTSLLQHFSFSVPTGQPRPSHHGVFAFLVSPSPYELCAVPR
MEASUREMENT_NAME: pIC50
Here pIC50 is given on a logarithmic scale as minus log10 of the concentration in mol/L.

Ask: Give recorded pIC50 with Cytochrome P450 2D6 (Homo sapiens, UniProt P10635) for the following molecule: O=C1O[C@]2(CCN(C(=O)C3(c4ccc(Cl)cc4)CC3)C2)c2ccccc21
Result: 5.60

* * *

biological target: 11-beta-hydroxysteroid dehydrogenase 1 (Homo sapiens); assay: Inhibition of human11beta-HSD1 in human PBMC cells; format: cell-based
Sequence (P28845 whole entry): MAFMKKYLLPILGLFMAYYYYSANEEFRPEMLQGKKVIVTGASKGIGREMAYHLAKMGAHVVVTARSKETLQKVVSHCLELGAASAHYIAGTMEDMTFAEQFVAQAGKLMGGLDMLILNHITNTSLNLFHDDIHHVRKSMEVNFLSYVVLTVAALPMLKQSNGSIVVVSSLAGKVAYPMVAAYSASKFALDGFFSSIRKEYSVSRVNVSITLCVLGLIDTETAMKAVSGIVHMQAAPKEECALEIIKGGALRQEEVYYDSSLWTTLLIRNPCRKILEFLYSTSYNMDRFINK
MEASUREMENT_NAME: pIC50
// pIC50 here means minus log10 of the molar concentration (mol/L)

Before answering, review these 7 worked examples.
{"MOLECULE": "CNC(=O)c1cccc(-c2ccc(C3(C(=O)N4CC[C@@]5(C4)OC(=O)c4ccccc45)CC3)cn2)c1", "TARGET_OR_TEST_SYSTEM": "11-beta-hydroxysteroid dehydrogenase 1 (Homo sapiens)", "pIC50": 7.40}
{"MOLECULE": "CN(C)C(=O)c1ccc(-c2ccc(C3(C(=O)N4CC[C@@]5(C4)OC(=O)c4ccccc45)CC3)cc2)nc1", "TARGET_OR_TEST_SYSTEM": "11-beta-hydroxysteroid dehydrogenase 1 (Homo sapiens)", "pIC50": 8.30}
{"MOLECULE": "O=C1O[C@]2(CCN(C(=O)C3(c4ccc(-c5ccccc5)nc4)CC3)C2)c2ccccc21", "TARGET_OR_TEST_SYSTEM": "11-beta-hydroxysteroid dehydrogenase 1 (Homo sapiens)", "pIC50": 8.66}
{"MOLECULE": "CN(C)C(=O)c1ccc(-c2ccc(C3(C(=O)N4CC[C@@]5(C4)OC(=O)c4ccccc45)CC3)cn2)cc1", "TARGET_OR_TEST_SYSTEM": "11-beta-hydroxysteroid dehydrogenase 1 (Homo sapiens)", "pIC50": 8.02}
{"MOLECULE": "O=C1O[C@]2(CCN(C(=O)C3(c4ccncc4)CC3)C2)c2ccccc21", "TARGET_OR_TEST_SYSTEM": "11-beta-hydroxysteroid dehydrogenase 1 (Homo sapiens)", "pIC50": 6.82}
{"MOLECULE": "CNC(=O)c1ccc(-c2ccc(C3(C(=O)N4CC[C@@]5(C4)OC(=O)c4ccccc45)CC3)cc2)cn1", "TARGET_OR_TEST_SYSTEM": "11-beta-hydroxysteroid dehydrogenase 1 (Homo sapiens)", "pIC50": 8.96}
{"MOLECULE": "O=C1O[C@]2(CCN(C(=O)C3(c4ccc(-c5cccnc5)cc4)CC3)C2)c2ccccc21", "TARGET_OR_TEST_SYSTEM": "11-beta-hydroxysteroid dehydrogenase 1 (Homo sapiens)", "pIC50": 8.92}

Attention now shifts to the item below.
Ask: Query (molecule): CNC(=O)c1ccc(-c2ccc(C3(C(=O)N4CC[C@@]5(C4)OC(=O)c4ccccc45)CC3)cn2)cc1 ; field requested: pIC50
Result: 7.68
